Recorded EC (1.5-fold increase) for the following compounds
# Tested on: SMN2 minigene mRNA (SMN2-A minigene) in HEK293H cells
# Measurement protocol: SMN2 minigene mRNA splicing RT-qPCR assay in cultured cells
# Type: cell-based, human
# Condition: Homo sapiens, HEK293-H; concentration increasing full length SMN2 mRNA 1.5-fold relative to vehicle-treated cells; HEK293H cells with SMN2-A minigene, 24 hours, 7-point concentration data; read-out: EC1.5x for production of full length SMN2 mRNA

Use these answered entries as a reference point.
CN1CCCN(c2ccc3nc(-c4ccc5c(cnn5C)c4)cc(=O)n3c2)CC1; 0.3 to 1 µM
CCN1CC=C(c2ccc3nc(-c4ccc5nc(C)oc5c4)cc(=O)n3c2)CC1; < 0.1 µM
COc1ccc(-c2cc(=O)n3cc(C4=CCNCC4)ncc3n2)cc1OC; < 0.1 µM
Cc1nc2ccc(-c3cc(=O)n4cc(N5CCN(C)CC5)ccc4n3)cc2s1; 0.3 to 1 µM
Cc1cn2cc(-c3cc(=O)n4cc(N5CCCN(C)CC5)ccc4n3)cc(F)c2n1; < 0.1 µM

Q. Recall the recorded EC (1.5-fold increase) for "CN(C)C1CCN(c2ccc3nc(-c4ccc5c(cnn5C)c4)cc(=O)n3c2)CC1" with SMN2 minigene mRNA (SMN2-A minigene) in HEK293H cells and state it.
A. 0.3 to 1 µM

Q. Recall the recorded EC (1.5-fold increase) for "CCc1cc(-c2cc(=O)n3cc(N4CCN5CCC[C@@H]5C4)ccc3n2)cn2cc(C)nc12" with SMN2 minigene mRNA (SMN2-A minigene) in HEK293H cells and state it.
A. < 0.1 µM

Q. Recall the recorded EC (1.5-fold increase) for "O=c1cc(-c2cc(F)cc(Cl)c2)nc2ccc(N3CCNCC3)cn12" with SMN2 minigene mRNA (SMN2-A minigene) in HEK293H cells and state it.
A. 0.3 to 1 µM

Q. Recall the recorded EC (1.5-fold increase) for "COc1ccc(-c2ccc3nc(C4CCNCC4)cc(=O)n3c2)cc1F" with SMN2 minigene mRNA (SMN2-A minigene) in HEK293H cells and state it.
A. 0.1 to 0.3 µM

Q. Recall the recorded EC (1.5-fold increase) for "COCCN1CCN(c2ccc3nc(-c4cc(F)c5nc(C)cn5c4)cc(=O)n3c2)CC1" with SMN2 minigene mRNA (SMN2-A minigene) in HEK293H cells and state it.
A. < 0.1 µM

Q. Recall the recorded EC (1.5-fold increase) for "CCN1CCN(c2ccc3nc(-c4cc5c(C6CC6)nc(C)cn5n4)cc(=O)n3c2)CC1" with SMN2 minigene mRNA (SMN2-A minigene) in HEK293H cells and state it.
A. 0.1 to 0.3 µM

Q. Recall the recorded EC (1.5-fold increase) for "Cc1cn2nc(-c3cc(=O)n4cc(N5CC(N(C)C)C5)ccc4n3)cc2c(C)n1" with SMN2 minigene mRNA (SMN2-A minigene) in HEK293H cells and state it.
A. 0.3 to 1 µM

Q. Recall the recorded EC (1.5-fold increase) for "COc1ccc(-c2cc(=O)n3cc(N4CCNC(C)(C)C4)ccc3n2)cc1OC" with SMN2 minigene mRNA (SMN2-A minigene) in HEK293H cells and state it.
A. 0.3 to 1 µM

Q. Recall the recorded EC (1.5-fold increase) for "CCc1nc(C)cn2nc(-c3cc(=O)n4cc(C5=CC(C)(C)NC(C)(C)C5)ccc4n3)cc12" with SMN2 minigene mRNA (SMN2-A minigene) in HEK293H cells and state it.
A. < 0.1 µM

Q. Recall the recorded EC (1.5-fold increase) for "CN1CCC(c2ccc3nc(-c4ccc5nn(C)cc5c4)cc(=O)n3n2)CC1" with SMN2 minigene mRNA (SMN2-A minigene) in HEK293H cells and state it.
A. < 0.1 µM

Q. Recall the recorded EC (1.5-fold increase) for "COc1ccc(-c2cc(=O)n3cc(N4C[C@H]5CNC[C@H]5C4)ccc3n2)cc1F" with SMN2 minigene mRNA (SMN2-A minigene) in HEK293H cells and state it.
A. 0.1 to 0.3 µM

Q. Recall the recorded EC (1.5-fold increase) for "CCc1nc(C)cn2nc(-c3cc(=O)n4cc(C5CCNCC5)ncc4n3)cc12" with SMN2 minigene mRNA (SMN2-A minigene) in HEK293H cells and state it.
A. < 0.1 µM

Where do the numbers come from? From patent US11753407B2.
